# assay target: α-glucosidase
# method: in vitro α-glucosidase inhibitory assay (p-nitrophenyl-D-glucopyranoside, 405 nm)
# Assay type: biochemical
# study conditions: triplicates; standard acarbose; read-out: α-Glucosidase IC50 (µM ±SEM)
readout: IC50 (µM)

Here's what some known entries look like.
molecule=FC(F)(F)c1ccc(/C=N/c2nnc(-c3cccc4[nH]cnc34)s2)cc1 readout=IC50 unit=µM reported_measurement=2.8
molecule=Cc1cccc(/C=N/c2nnc(-c3cccc4[nH]cnc34)s2)c1 readout=IC50 unit=µM reported_measurement=21.6
molecule=Clc1cccc(/C=N/c2nnc(-c3cccc4[nH]cnc34)s2)c1Cl readout=IC50 unit=µM reported_measurement=6.6
molecule=COc1cccc(/C=N/c2nnc(-c3cccc4[nH]cnc34)s2)c1 readout=IC50 unit=µM reported_measurement=17.2
molecule=Brc1ccc(/C=N/c2nnc(-c3cccc4[nH]cnc34)s2)cc1 readout=IC50 unit=µM reported_measurement=26.1
molecule=Fc1ccc(/C=N/c2nnc(-c3cccc4[nH]cnc34)s2)cc1 readout=IC50 unit=µM reported_measurement=3.9
molecule=O=[N+]([O-])c1cc(Cl)ccc1/C=N/c1nnc(-c2cccc3[nH]cnc23)s1 readout=IC50 unit=µM reported_measurement=9.3
molecule=Cc1ccc(/C=N/c2nnc(-c3cccc4[nH]cnc34)s2)cc1 readout=IC50 unit=µM reported_measurement=15.3
molecule=O=[N+]([O-])c1ccccc1/C=N/c1nnc(-c2cccc3[nH]cnc23)s1 readout=IC50 unit=µM reported_measurement=7.4
molecule=Cc1ccccc1/C=N/c1nnc(-c2cccc3[nH]cnc23)s1 readout=IC50 unit=µM reported_measurement=19.9

A: O=[N+]([O-])c1ccc(/C=N/c2nnc(-c3cccc4[nH]cnc34)s2)cc1
B: COc1ccc(OC)c(/C=N/c2nnc(-c3cccc4[nH]cnc34)s2)c1
Query :: Kindly compare A with B and tell me which has the lower IC50 figure. # respond with the chosen item's label
Result :: A
(A: 5.7 µM, B: 14.5 µM)

P: O=[N+]([O-])c1cc(Br)ccc1/C=N/c1nnc(-c2cccc3[nH]cnc23)s1
Q: Oc1cc(F)ccc1/C=N/c1nnc(-c2cccc3[nH]cnc23)s1
R: COc1ccccc1/C=N/c1nnc(-c2cccc3[nH]cnc23)s1
Query :: Put the items in order so that reported IC50 rises from first to last. I'd appreciate it if you listed the labels in the requested order.
Result :: Q, R, P
